# test-target: human tau(pS422) (Homo sapiens, UniProt P10636, S739X)
# method-notes: BIAcore kinetic screening and kinetic rates of humanized VH/VL combinations
# Assay type: binding
# applied-conditions: 25 °C; VH14 or VH20 with VL variants
measure: kd (s⁻¹)
Please give a number only; it is taken to be in s⁻¹.

[
  {
    "molecule": "VH14 with VL40: anti-human tau(pS422) antibody; VH SEQ ID NO: 50, VL SEQ ID NO: 43 (antibody, V domains shown, humanized sequence) VH: QQLVESGGGLVQPGGSLRLSCAASGFSLSSNAINWVRQAPGKGLEWVGYIAVSGNTYYASWAKGRFTISRDNSKNTLYLQMNSLRAEDTAVYYCGKSNIWGPGTLVTVSS VL: DIQMTQSPSSLSASVGDRVTITCRSSQSVRTNRLAWFQQKPGQPPKRLIYSASTLDFGVPSRFSGSGSGTEFTLTISSLQPEDFATYYCLGYFDPSADPVAFGGGTKVEIK",
    "reading-unit": "s⁻¹",
    "kd": 0.00301
  }
]

Attention now turns to another entry.
Which value of kd has been reported for VH14 with VL21: anti-human tau(pS422) antibody; VH SEQ ID NO: 50, VL SEQ ID NO: 16 (antibody, V domains shown, humanized sequence) VH: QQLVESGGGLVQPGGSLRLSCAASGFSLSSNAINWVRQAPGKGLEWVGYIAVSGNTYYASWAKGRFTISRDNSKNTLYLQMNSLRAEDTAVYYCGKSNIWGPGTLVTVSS VL: AQVMTQSPSSLSASVGDRVTITCRSSQSVRTNKLAWFQQKPGQPPKRLIYSASTLDFGVPSRFSGSGSGTEFTLTISSLQPEDFATYYCLGYFDSSADIVAFGGGTKVEIK in the records? 0.00293
